Target: UniProtKB Q66K64
Experiment: HTRF competition assay, binary interaction between compounds and DCAF15
Conditions: competition with Alexa Fluor 647 tracer, His-tagged DCAF15 complex
Overview of recorded IC50 for various molecules
PROPERTY_LABEL: IC50

- ITEM_SMILES: "O=S(=O)(Nc1ccc(Cl)c2c(Cl)c[nH]c12)c1ccc(OC2CCC3(CC2)CNC3)cc1"
  RESULT: "1 to 10 µM"
- ITEM_SMILES: "O=S(=O)(Nc1ccc(Cl)c2c(Cl)c[nH]c12)c1ccc(OC[C@@H]2CCCNC2)cc1"
  RESULT: "10 to 100 µM"
- ITEM_SMILES: "CCN(CC)C(=O)c1ccc(CNC(=O)c2ccc(S(=O)(=O)Nc3ccc(Cl)c4c(Cl)c[nH]c34)c(F)c2)cc1"
  RESULT: "1 to 10 µM"
- ITEM_SMILES: "CC[C@H](NC(=O)c1cccc(S(=O)(=O)Nc2ccc(Cl)c3c(Cl)c[nH]c23)c1F)c1ccc2c(c1)OCCO2"
  RESULT: "1 to 10 µM"
- ITEM_SMILES: "O=S(=O)(Nc1ccc(Cl)c2c(Cl)c[nH]c12)c1ccc(Oc2ccccc2)c(Cl)c1"
  RESULT: "> 100 µM"
- ITEM_SMILES: "O=S(=O)(Nc1ccc(Cl)c2c(Cl)c[nH]c12)c1ccc(Oc2ccc(F)cc2)cc1"
  RESULT: "10 to 100 µM"
- ITEM_SMILES: "Cc1cc(CNC(=O)c2cccc(S(=O)(=O)Nc3ccc(Cl)c4c(Cl)c[nH]c34)c2F)nn1C"
  RESULT: "1 to 10 µM"
- ITEM_SMILES: "CC1(Oc2ccc(S(=O)(=O)Nc3ccc(Cl)c4c(Cl)c[nH]c34)cc2)CCNCC1"
  RESULT: "1 to 10 µM"
- ITEM_SMILES: "O=C(NCCc1ccccn1)c1ccc(S(=O)(=O)Nc2ccc(Cl)c3c(Cl)c[nH]c23)c(F)c1"
  RESULT: "1 to 10 µM"
- ITEM_SMILES: "O=C(N[C@H]1CCCCNC1=O)c1cccc(S(=O)(=O)Nc2ccc(Cl)c3c(Cl)c[nH]c23)c1F"
  RESULT: "< 1 µM"
- ITEM_SMILES: "O=C(c1ccc(S(=O)(=O)Nc2ccc(Cl)c3c(Cl)c[nH]c23)c(F)c1)N1CC[C@H](n2ccnn2)C1"
  RESULT: "< 1 µM"
- ITEM_SMILES: "O=C(c1ccc(S(=O)(=O)Nc2ccc(Cl)c3c(Cl)c[nH]c23)c(F)c1)N1CCc2[nH]c(-c3ccccc3)nc2C1"
  RESULT: "1 to 10 µM"
- ITEM_SMILES: "O=S(=O)(Nc1ccc(Cl)c2c(Cl)c[nH]c12)c1ccc(OC2CC3(CNC3)C2)cc1"
  RESULT: "1 to 10 µM"
- ITEM_SMILES: "CC1(CCOc2ccc(S(=O)(=O)Nc3ccc(Cl)c4c(Cl)c[nH]c34)cc2)CCNCC1"
  RESULT: "1 to 10 µM"
- ITEM_SMILES: "CCOCCOc1ccc(S(=O)(=O)Nc2ccc(Cl)c3c(Cl)c[nH]c23)cc1C(C)C"
  RESULT: "> 100 µM"
- ITEM_SMILES: "CNC(=O)c1cccc(S(=O)(=O)Nc2ccc(Cl)c3c(Cl)c[nH]c23)c1F"
  RESULT: "1 to 10 µM"
- ITEM_SMILES: "O=C(c1cccc(S(=O)(=O)Nc2ccc(Cl)c3c(Cl)c[nH]c23)c1F)N1CC[C@H](n2ccnn2)C1"
  RESULT: "< 1 µM"
- ITEM_SMILES: "O=S(=O)(Nc1ccc(Cl)c2c(Cl)c[nH]c12)c1cccc(OCc2cccc(OC(F)F)c2)c1"
  RESULT: "> 100 µM"
- ITEM_SMILES: "O=S(=O)(Nc1ccc(Cl)c2c(Cl)c[nH]c12)c1cccc(OC2CCC3(CCNCC3)CC2)c1"
  RESULT: "10 to 100 µM"
- ITEM_SMILES: "O=S(=O)(Nc1ccc(Cl)c2c(Cl)c[nH]c12)c1cccc(OC[C@H]2[C@@H]3CNC[C@@H]32)c1"
  RESULT: "10 to 100 µM"
- ITEM_SMILES: "Cn1nnc2cc(COc3ccc(S(=O)(=O)Nc4ccc(Cl)c5c(Cl)c[nH]c45)cc3)ccc21"
  RESULT: "> 100 µM"
- ITEM_SMILES: "O=S(=O)(Nc1ccc(Cl)c2c(Cl)c[nH]c12)c1ccc(O[C@H]2CC[C@H](OCc3ccccc3)CC2)cc1"
  RESULT: "> 100 µM"

* * *

Molecular target: DCAF15 (Homo sapiens)
Test: HTRF competition assay, binary interaction between compounds and DCAF15
Conditions: competition with Alexa Fluor 647 tracer, His-tagged DCAF15 complex
Procedure: Example 7: Measurement of Binary Interaction Between Compounds And DCAF15 Using Homogeneous Time Resolved Fluorescence (HTRF) DCAF15 interactions with test compounds were monitored using HTRF competition assays (Cisbio, Bedford, MA). […] The final mixture was incubated for an hour at room temperature and spun down briefly before data collection at 615 nm and 666 nm using En Vision 2104 Multilabel Plate Reader (Perkin Elmer, Bedford, MA). […]
pIC50: −log10 of the molar value.

- ITEM_SMILES: "CC1(CCOc2cccc(S(=O)(=O)Nc3ccc(Cl)c4c(Cl)c[nH]c34)c2)CCNCC1"
  TESTED_TARGET: "DCAF15 (Homo sapiens)"
  pIC50: "4.00 to 5.00"
- ITEM_SMILES: "CS(=O)(=O)c1ccc(CCOc2ccc(S(=O)(=O)Nc3ccc(Cl)c4c(Cl)c[nH]c34)cc2)cc1"
  TESTED_TARGET: "DCAF15 (Homo sapiens)"
  pIC50: "< 4.00"
- ITEM_SMILES: "CC(C)C(=O)Nc1cccc(CNC(=O)c2ccc(S(=O)(=O)Nc3ccc(Cl)c4c(Cl)c[nH]c34)c(F)c2)c1"
  TESTED_TARGET: "DCAF15 (Homo sapiens)"
  pIC50: "5.00 to 6.00"
- ITEM_SMILES: "COc1cccc(Oc2ccc(CNC(=O)c3cccc(S(=O)(=O)Nc4ccc(Cl)c5c(Cl)c[nH]c45)c3F)cn2)c1"
  TESTED_TARGET: "DCAF15 (Homo sapiens)"
  pIC50: "5.00 to 6.00"
- ITEM_SMILES: "CC(C)(C)OC(=O)N1CCC2(CC1)CN(C(=O)c1ccc(S(=O)(=O)Nc3ccc(Cl)c4c(Cl)c[nH]c34)c(F)c1)CCO2"
  TESTED_TARGET: "DCAF15 (Homo sapiens)"
  pIC50: "5.00 to 6.00"
- ITEM_SMILES: "CC(C)C[C@H](NC(=O)c1cccc(S(=O)(=O)Nc2ccc(Cl)c3c(Cl)c[nH]c23)c1F)c1nc2ccccc2[nH]1"
  TESTED_TARGET: "DCAF15 (Homo sapiens)"
  pIC50: "5.00 to 6.00"
- ITEM_SMILES: "O=S(=O)(Nc1ccc(Cl)c2c(Cl)c[nH]c12)c1ccc(Oc2ccc(F)cc2)c(Br)c1"
  TESTED_TARGET: "DCAF15 (Homo sapiens)"
  pIC50: "< 4.00"

* * *

Target: DCAF15/RBM39 (Homo sapiens, UniProt Q14498+Q66K64)
Assay: AlphaLISA compound-induced DCAF15-RBM39 ternary complex formation
Settings: His-tagged DCAF15 complex and biotin-carrying RBM39

- MOLECULE: "O=S(=O)(Nc1ccc(Cl)c2c(Cl)c[nH]c12)c1cccc(O[C@H]2CC[C@H](N3CCOCC3)CC2)c1 [Compound 16]"
  EC50: "< 1000 nM"
- MOLECULE: "CNC(=O)c1cccc(S(=O)(=O)Nc2ccc(Cl)c3c(Cl)c[nH]c23)c1F [Compound 236]"
  EC50: "< 1000 nM"
- MOLECULE: "CCS(=O)(=O)CCOc1ccc(S(=O)(=O)Nc2ccc(Cl)c3c(Cl)c[nH]c23)cc1 [Compound 71]"
  EC50: "1000 to 10000 nM"
- MOLECULE: "CN1CC[C@@H](c2ccc(F)cc2)[C@H](COc2cccc(S(=O)(=O)Nc3ccc(Cl)c4c(Cl)c[nH]c34)c2)C1 [Compound 41]"
  EC50: "< 1000 nM"
